Reference for the values: patent US5952335A

System: M5076 (Mouse Reticulum Cell Sarcoma)
ASSAY PROTOCOL: in vivo Antitumor Test on M5076 (Mouse Reticulum Cell Sarcoma) transplanted in BDF1 mice
ASSAY SETUP: M5076, ip, 504 h, 25 mg/kg/day, i.p., d9 after transplantation, read-out: Survival rate on the judgement day (21th day)
Structures can show the parent of a compound that is named as a salt.
Provide the reported survival rate on day 21 at 25 mg/kg of each item.
Give bare numbers, in %.

Please review the entries below; each comes with its answer.
>>> experimental_result("CC(O)c1ccc2c(ccc3c2c2cccc4c(=O)n(CCN(C)C)c(=O)n3c42)c1 (stereo not shown) [Example 3, hydrochloride]")
100
>>> experimental_result("CC(=O)c1ccc2c(ccc3c2c2cccc4c(=O)n(CCN(C)C)c(=O)n3c42)c1 [Example 2, hydrochloride]")
100
>>> experimental_result("CN(C)CCn1c(=O)c2cccc3c4c5c(ccc4n(c1=O)c23)C(=O)CCC5 [Example 4, hydrochloride]")
100

## Task Look up survival rate on day 21 at 25 mg/kg of CN(C)CCn1c(=O)c2cccc3c4c5ccc(C#N)cc5ccc4n(c1=O)c23 [Example 35, hydrochloride] and report it.
## Result 100
